For each record, write down the corresponding inhibition.
target: NAD-dependent protein deacylase sirtuin-5, mitochondrial (Homo sapiens) (UniProt Q9NXA8); assay: blockers of sirtuin-5 deacylase activity – biochemical, fluorescence imaging, single point, set 5, primary screen (AID 652115); details: Purified SirT5, succinyl-peptide AMC, trypsin-coupled fluorescence; at 15 µM; active compounds read high
Sequence (Q9NXA8 whole entry, looked up): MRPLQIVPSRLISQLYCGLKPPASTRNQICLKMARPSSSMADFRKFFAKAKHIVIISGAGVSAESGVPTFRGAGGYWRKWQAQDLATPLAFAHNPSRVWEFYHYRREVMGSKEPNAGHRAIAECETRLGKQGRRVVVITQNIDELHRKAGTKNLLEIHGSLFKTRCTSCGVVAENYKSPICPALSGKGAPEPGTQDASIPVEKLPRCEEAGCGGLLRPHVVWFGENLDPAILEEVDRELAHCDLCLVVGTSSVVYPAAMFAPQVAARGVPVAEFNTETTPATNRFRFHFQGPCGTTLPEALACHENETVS
Among all 330,000 compounds or so, about 3,800 (1.2%) were called active. Only a selection was taken, and actives are over-represented in it overall.
The response must be a number in % with no trailing unit.

[ask] Looking for the measured inhibition of "C[C@@H]1CN([C@@H](C)CO)C(=O)c2cc(NC(=O)Nc3cccc4ccccc34)ccc2O[C@@H](C)CCCCO[C@@H]1CN(C)S(=O)(=O)c1ccc(Cl)cc1" , can you help?
[reply] 18.7

[ask] Could you tell me which inhibition is on file for "CC(=O)N[C@@H]1CC[C@@H](CCNC(=O)C2CC2)O[C@H]1CO" ?
[reply] -0.463

[ask] Can you look up the measured inhibition of "N#C[C@H]1[C@@H](c2ccccc2C2=CCCCC2)[C@H](CO)N1C(=O)c1ccccn1" for me?
[reply] 2.41

[ask] Consider the compound "COc1cccc(-c2ccc([C@H]3[C@H]4CN(C(=O)NC(C)C)CC(=O)N4[C@H]3CO)cc2)c1" and give its measured inhibition.
[reply] 1.38

[ask] Query (compound): "CC(C)NC(=O)Nc1ccc2c(c1)C(=O)N([C@@H](C)CO)C[C@H](C)[C@H](CN(C)S(=O)(=O)c1ccc(Cl)cc1)OCCCC[C@H](C)O2" ; field requested: inhibition
[reply] 4.57

[ask] Could you tell me which inhibition is on file for "O=C(Nc1nnc(C2CC2)s1)c1ccccn1" ?
[reply] 23.4

[ask] Field request: inhibition | item: O=C(c1cccs1)N(Cc1cc2ccccc2[nH]c1=O)CC1CCCO1 (stereo unspecified)
[reply] 0.632

[ask] Would you kindly share the measured inhibition for Cc1cc2cc(CN(Cc3cccs3)Cc3nnnn3CC3CCCO3)c(=O)[nH]c2cc1C (stereo unspecified) ?
[reply] -2.28

[ask] Quick one: inhibition for "COc1ccc(S(=O)(=O)N(C)C[C@H]2OCCCC[C@@H](C)Oc3ccc(NS(=O)(=O)c4ccc(C)cc4)cc3C(=O)N([C@@H](C)CO)C[C@@H]2C)cc1" ?
[reply] 21.4

[ask] # get_value(readout='inhibition', item= "CCC(=O)N1[C@@H]2CN(C(=O)Nc3ccc(Cl)cc3)c3ccccc3[C@@H]2[C@@H]1CO" )
[reply] -1.71

[ask] I have this compound here, "C[C@H](CO)N1C[C@H](C)[C@@H](CN(C)S(=O)(=O)c2ccccc2F)Oc2ncc(C#Cc3ccccc3F)cc2C1=O" , and I need its recorded inhibition.
[reply] 2.94

[ask] Given the compound "COCC(=O)Nc1ccc2c(c1)OC[C@H](C)N(C(=O)c1cnccn1)C[C@@H](C)[C@@H](OC)CN(C)C2=O" , what is its reported inhibition?
[reply] 10.6

[ask] # lookup: inhibition of "COc1ccc(S(=O)(=O)N(C)C[C@H]2OCCCC[C@H](C)Oc3ccc(NS(=O)(=O)c4ccc(F)cc4)cc3C(=O)N([C@@H](C)CO)C[C@@H]2C)cc1"
[reply] 20.4

[ask] Which inhibition value is on record for "COc1ccc(S(=O)(=O)Nc2ccc3c(c2)C(=O)N([C@@H](C)CO)C[C@H](C)[C@H](CN(C)S(=O)(=O)c2ccc(F)cc2)OCCCC[C@@H](C)O3)cc1" ?
[reply] 11.3

[ask] Can you look up the measured inhibition of "C[C@H]1CN([C@@H](C)CO)C(=O)c2cc(NC(=O)Nc3ccc4c(c3)OCO4)ccc2O[C@@H]1CN(C)CC1CCCCC1" for me?
[reply] 6.87

[ask] Record request: inhibition value, item "Nc1nnc(SCC(=O)NCC(=O)Nc2ccc(F)c(F)c2F)s1"
[reply] 0.518

[ask] Looking for the measured inhibition of "CCS(=O)(=O)N1CC(=O)N2[C@H](CO)[C@@H](c3ccc(C#Cc4cccc(F)c4)cc3)[C@@H]2C1" , can you help?
[reply] -0.525

[ask] Which inhibition reading was recorded for the compound "COC(=O)c1ccc(CSc2nnc(N)s2)o1" ?
[reply] 16

[ask] Find the recorded inhibition belonging to "C/C=C/c1cnc2c(c1)C(=O)N([C@@H](C)CO)C[C@@H](C)[C@H](CN(C)Cc1cncnc1)O2" and report it.
[reply] -2.68

[ask] State the recorded inhibition for this entry: "CCCN(C)C[C@H]1Oc2ncc(C#CCOC)cc2C(=O)N([C@@H](C)CO)C[C@H]1C"
[reply] 0.664

[ask] # get_value(readout='inhibition', item= Cc1ccc(S(=O)(=O)N(Cc2cc3ccccc3[nH]c2=O)CC2CCCO2)cc1 (stereo unspecified) )
[reply] 23.6

[ask] Sample COCC(C)n1c(SCc2ccc(C(=O)OC)o2)nc2ccccc2c1=O (stereo unspecified) — what was its inhibition?
[reply] 1.17

[ask] Looking for the measured inhibition of "COCC(=O)N(C)C[C@@H]1Oc2cc(C#Cc3cccnc3)ccc2S(=O)(=O)N([C@H](C)CO)C[C@H]1C" , can you help?
[reply] -3.01

[ask] Record request: inhibition value, item "C[C@@H](NC(=O)C[C@H]1C[C@@H]2c3cc(NC(=O)Nc4ccccc4F)ccc3O[C@@H]2[C@H](CO)O1)c1ccccc1"
[reply] 1.89

[ask] Which value of inhibition has been reported for "C[C@H]1CCCCO[C@@H](CN(C)Cc2ccc3c(c2)OCO3)[C@@H](C)CN([C@@H](C)CO)C(=O)c2cc(NC(=O)Nc3ccc(F)cc3)ccc2O1" in the records?
[reply] 1.57

[ask] Recorded inhibition for "C[C@@H]1CN([C@H](C)CO)C(=O)Cc2cc(NC(=O)Nc3ccc(F)cc3)ccc2O[C@@H]1CN(C)Cc1ccc2c(c1)OCO2" , please?
[reply] 32.7

[ask] // lookup inhibition for "CO[C@@H]1CC[C@@H]2CCOc3c(C#N)cccc3C(=O)N(C)C[C@@H](C)C(=O)N(C)C[C@@H]1O2"
[reply] 0.964

[ask] // inhibition lookup, key: "C[C@H]1CN([C@@H](C)CO)C(=O)c2ccccc2-c2ccccc2CO[C@H]1CN(C)C(=O)Nc1ccc(-c2ccccc2)cc1"
[reply] 16.8

[ask] // returns reported inhibition for input "COCC(=O)N[C@@H]1C[C@@H]2O[C@@H](CO)CC[C@@H]2O[C@@H]1CCc1ccc(-c2ccccc2)cc1"
[reply] -3.27

[ask] For the compound shown here, "C[C@@H]1CCCCO[C@@H](CN(C)Cc2ccc3c(c2)OCO3)[C@@H](C)CN([C@@H](C)CO)C(=O)c2cc(NC(=O)Nc3ccccc3)ccc2O1" , give the reported inhibition.
[reply] 0.341

[ask] Any idea what its inhibition is? The compound is "C[C@H](CO)N1C[C@H](C)[C@@H](CN(C)S(C)(=O)=O)OCCCC[C@H](C)Oc2ccc(NC(=O)Nc3cccc4ccccc34)cc2C1=O"
[reply] -3.3

Reference for the values: PubChem BioAssay AID652115
